These entries and their values trace back to ChEMBL document CHEMBL4346689.

# target or system: Prostaglandin G/H synthase 1 (Ovis aries, UniProt P05979)
# Sequence (P05979 whole entry): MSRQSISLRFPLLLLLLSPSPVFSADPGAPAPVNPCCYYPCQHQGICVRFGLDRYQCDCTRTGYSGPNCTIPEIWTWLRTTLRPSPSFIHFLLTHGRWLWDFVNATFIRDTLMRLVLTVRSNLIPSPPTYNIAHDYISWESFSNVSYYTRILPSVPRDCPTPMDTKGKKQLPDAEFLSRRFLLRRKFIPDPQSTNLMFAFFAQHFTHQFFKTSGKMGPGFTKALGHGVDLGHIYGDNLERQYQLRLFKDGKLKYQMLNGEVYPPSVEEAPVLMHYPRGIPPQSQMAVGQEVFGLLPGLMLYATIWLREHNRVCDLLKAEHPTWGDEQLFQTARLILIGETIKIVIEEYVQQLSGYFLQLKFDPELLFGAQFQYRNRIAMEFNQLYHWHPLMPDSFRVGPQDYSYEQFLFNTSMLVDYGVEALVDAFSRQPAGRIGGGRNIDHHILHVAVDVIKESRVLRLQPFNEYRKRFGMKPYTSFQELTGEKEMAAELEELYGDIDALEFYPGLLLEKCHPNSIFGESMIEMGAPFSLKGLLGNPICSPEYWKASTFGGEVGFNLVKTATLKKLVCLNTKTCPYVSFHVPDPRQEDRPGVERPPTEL
measured property: IC50 (µM)
Number in µM, nothing else.

Nn1c(S)nnc1-c1ccccc1S(=O)(=O)NCc1ccccc1 has a reported IC50 of 2.98

// IC50 value for Cc1cc(-c2ccccc2)n(C(=O)c2ccccc2S(=O)(=O)NC(C)C)n1 : 9.24

For O=S(=O)(NCc1ccccc1)c1ccccc1-c1nnc(S)n1/N=C/c1ccc(Cl)cc1 the compound record lists IC50 as 5.71

get_value(item= O=S(=O)(NCc1ccccc1)c1ccccc1-c1nnc(S)n1/N=C/c1ccccc1 , readout=IC50) returns 6.45

IC50 for CC(C)NS(=O)(=O)c1ccccc1C(=O)N1N=C(c2ccccc2)CC1=O is 12.2

Item: CCSc1nnc(-c2ccccc2S(=O)(=O)NCc2ccccc2)o1 | IC50: 8.21

###

# test summary: Ulcerogenicity in albino rat assessed as incidence of gastric ulceration at 18 mg/kg, po administrated once daily for 3 successive days and measured after 6 hrs from last dose relative to control
# Assay type: toxicity, organism-based
# condition: in vivo
measured property: Activity

Check out these entries, answers already filled in.
>>> reading("COc1ccc2c(c1)c(CC(=O)O)c(C)n2C(=O)c1ccc(Cl)cc1")
"100%"
>>> reading("Cc1ccc(-c2cc(C(F)(F)F)nn2-c2ccc(S(N)(=O)=O)cc2)cc1")
"0%"
>>> reading("O=C(N/N=C/c1ccc(F)cc1)C(C(=O)N/N=C/c1ccc(F)cc1)N1C(=O)c2ccccc2S1(=O)=O")
"100%"
>>> reading("Cc1cc(-c2ccccc2)n(C(=O)C(C(=O)n2nc(C)cc2-c2ccccc2)N2C(=O)c3ccccc3S2(=O)=O)n1")
"20%"

GET /value?item= Nn1c(S)nnc1-c1ccccc1S(=O)(=O)NCc1ccccc1 &field=Activity returns 100%

Data point: Cc1cc(-c2ccccc2)n(C(=O)c2ccccc2S(=O)(=O)NC(C)C)n1 ; Activity = 20%

Query CC(C)NS(=O)(=O)c1ccccc1C(=O)N1N=C(c2ccccc2)CC1=O yields Activity of 20%
